# experimental.details: Influencing factors stability test (light exposure, high temperature, high humidity)
# Format: physicochemical
# measurement.parameters: solid storage, 75% RH, 5 days; read-out: Purity%
metric: remaining at 120 h (%)
State the answer as a number, implicitly in %.

Ask: Dear colleague, please send me the reported remaining at 120 h for FC1(F)Oc2ccc(Nc3ccc4cccc(Cl)c4n3)cc2O1 [crystal form A] when you can.
Result: 100

====

# experimental.details: Influencing factors stability test (light exposure, high temperature, high humidity)
# Format: physicochemical
# measurement.parameters: solid storage, 92.5% RH, 10 days; read-out: Purity%
metric: remaining at 240 h
Note: state the figure and append the unit.

Ask: Dear colleague, please send me the reported remaining at 240 h for FC1(F)Oc2ccc(Nc3ccc4cccc(Cl)c4n3)cc2O1 [crystal form A] when you can.
Result: 100%

Measured values drawn from patent EP4624469A1 for this set.
